Assign pIC50 to each entry below.
# assay system: Glutamate [NMDA] receptor
# test description: Ability to inhibit MK-801 binding to NMDA receptor in the presence of 100 uM of spermidine was determined
# Assay type: protein-complex assay
When answering, recall that pIC50 equals minus log10 of the concentration in mol/L, and write that number alone.

// map `CC(C)Oc1cc(CNC(=N)N)cc(CNC(=N)N)c1` to recorded pIC50 (system: Glutamate [NMDA] receptor)
4.98

Quick check: pIC50 on Glutamate [NMDA] receptor, item `CCCCN(Cc1cccc(CN(CCCC)C(=N)N)c1)C(=N)N` ?
5.03

What pIC50 appears in the records for this compound with Glutamate [NMDA] receptor? `CC(C)CN(Cc1cccc(CN(CC(C)C)C(=N)N)c1)C(=N)N`
3.95

# value lookup — system Glutamate [NMDA] receptor, readout pIC50, item `N=C(N)N(Cc1ccccc1)Cc1cccc(CN(Cc2ccccc2)C(=N)N)c1`
5.65

API: value(readout= pIC50, system= Glutamate [NMDA] receptor, query= `COc1cc(CNC(=N)N)cc(CNC(=N)N)c1` )
5.23

So what pIC50 did `CCCN(Cc1cc(O)cc(CN(CCC)C(=N)N)c1)C(=N)N` get with Glutamate [NMDA] receptor?
3.96

Provide the documented pIC50 with Glutamate [NMDA] receptor as the system for `N=C(N)NCc1cc(CNC(=N)N)cc(NC(=O)c2ccccc2)c1`
4.69

Form: Entry = NC(N)=NCCCCN=C(N)N [ARCAINE] | System = Glutamate [NMDA] receptor | pIC50 = ____
4.10

For the record `N=C(N)NCc1cccc(CNC(=N)N)c1` , what value of pIC50 is listed for Glutamate [NMDA] receptor?
5.15

State its pIC50 on Glutamate [NMDA] receptor: `CCN(Cc1cccc(CN(CC)C(=N)N)c1)C(=N)N`
4.12

What is its pIC50 for Glutamate [NMDA] receptor? Entry: `C=CCN(Cc1cccc(CN(CC=C)C(=N)N)c1)C(=N)N`
4.53

Report pIC50 for `N=C(N)NCc1cccc(CNC(=N)N)n1` tested on Glutamate [NMDA] receptor.
4.31

Tell me reported pIC50 for `CCCN(Cc1cccc(CN(CCC)C(=N)N)n1)C(=N)N` , tested with Glutamate [NMDA] receptor.
4.02

Could you share what pIC50 was measured for `N=C(N)NCc1cc(CNC(=N)N)cc(OC2CCCCC2)c1` , tested on Glutamate [NMDA] receptor?
5.01

Form field - read-out: pIC50; system: Glutamate [NMDA] receptor; submitted item: `N=C(N)NCc1cc(CNC(=N)N)cc(-c2ccccc2)c1`
4.80

Any idea what pIC50 came out for `CCCN(Cc1cccc(CN(CCC)C(=N)N)c1)C(=N)N` on Glutamate [NMDA] receptor?
4.91

// map `CCCN(Cc1cc(CN(CCC)C(=N)N)cc(OC)c1)C(=N)N` to recorded pIC50 (system: Glutamate [NMDA] receptor)
4.26

* * *

# assay system: Glutamate [NMDA] receptor
# test description: Ability to inhibit MK-801 binding to the NMDA receptor was determined
# Type: protein-complex assay
Can you tell me log10(IC50) for the items I'm about to list?
// do not treat as linear: log10 of IC50, unit µM

May I ask what log10(IC50) has been recorded for `CCN(Cc1cccc(CN(CC)C(=N)N)c1)C(=N)N` ?
0.71

May I ask what log10(IC50) has been recorded for `COc1cc(CNC(=N)N)cc(CNC(=N)N)c1` ?
0.11

So what's the measured log10(IC50) for this one? NC(N)=NCCCCN=C(N)N [ARCAINE]
0.96

# log10(IC50) lookup, item `CC(C)CN(Cc1cccc(CN(CC(C)C)C(=N)N)c1)C(=N)N`
1.03

Entry `CCCN(Cc1cc(O)cc(CN(CCC)C(=N)N)c1)C(=N)N` has what log10(IC50)?
1.03

Fill blank: measured log10(IC50) of the compound `CCCN(Cc1cccc(CN(CCC)C(=N)N)c1)C(=N)N` is ____.
-0.24

Fill blank: measured log10(IC50) of the compound `N=C(N)NCc1cc(CNC(=N)N)cc(NC(=O)c2ccccc2)c1` is ____.
0.64

Look up log10(IC50) for this compound: `CC(C)Oc1cc(CNC(=N)N)cc(CNC(=N)N)c1`
0.39

Any idea what its log10(IC50) is? The compound is `N=C(N)NCc1cccc(CNC(=N)N)c1`
0.08

Need log10(IC50) of `N=C(N)NCc1cc(CNC(=N)N)cc(OC2CCCCC2)c1` , thanks.
0.96

Can you share its log10(IC50)? I mean this compound: `CCCN(Cc1cc(CN(CCC)C(=N)N)cc(OC)c1)C(=N)N`
1.31

Name the reported log10(IC50) value associated with the compound `C=CCN(Cc1cccc(CN(CC=C)C(=N)N)c1)C(=N)N`
0.59

Fill in: log10(IC50) of `CCCCN(Cc1cccc(CN(CCCC)C(=N)N)c1)C(=N)N` is ___
0.45

Which log10(IC50) is listed for `CCCN(Cc1cccc(CN(CCC)C(=N)N)n1)C(=N)N` ?
0.94

Could you tell me which log10(IC50) is on file for `N=C(N)NCc1cc(CNC(=N)N)cc(-c2ccccc2)c1` ?
0.71

Query (compound): `N=C(N)N(Cc1ccccc1)Cc1cccc(CN(Cc2ccccc2)C(=N)N)c1` ; field requested: log10(IC50)
0.58

Could you share which log10(IC50) value was measured for `N=C(N)NCc1cccc(CNC(=N)N)n1` ?
0.60
